Test system: 3-epimerase
Experiment: Metal dependence of 3-epimerase
Assay type: biochemical, Thermogemmatispora carboxidivorans
Settings: EDTA-treated 3-epimerase 0.04 U/mL, 1 mM metal ion, 10% (w/v) fructose, Tris pH 7.5, 60° C., 20 minutes; None = 100
OBSERVATION_TYPE: Relative activity (%)
Please give a number only; it is taken to be in %.

Could you share which Relative activity (%) value was measured for `[Cu+2]` ?
0

Now the same for `[Mg+2]`
130

Now the same for `[Na+]`
120

Now the same for `[Ca+2]`
65

Now the same for `[Co+2]`
170

Now the same for `[Zn+2]`
0

Now the same for `[K+]`
113

Now the same for `[Mn+2]`
168
